Documented IC50 across a set of compounds
# Measured on: SCD1 (Homo sapiens, UniProt O00767)
# Construct: host or cells: S. cerevisiae ole1Δ strain (W303 pdr1Δ pdr3Δ background), plasmid pRS316 with TDH3 promoter and CYC1 terminator
# Sequence (O00767 whole entry): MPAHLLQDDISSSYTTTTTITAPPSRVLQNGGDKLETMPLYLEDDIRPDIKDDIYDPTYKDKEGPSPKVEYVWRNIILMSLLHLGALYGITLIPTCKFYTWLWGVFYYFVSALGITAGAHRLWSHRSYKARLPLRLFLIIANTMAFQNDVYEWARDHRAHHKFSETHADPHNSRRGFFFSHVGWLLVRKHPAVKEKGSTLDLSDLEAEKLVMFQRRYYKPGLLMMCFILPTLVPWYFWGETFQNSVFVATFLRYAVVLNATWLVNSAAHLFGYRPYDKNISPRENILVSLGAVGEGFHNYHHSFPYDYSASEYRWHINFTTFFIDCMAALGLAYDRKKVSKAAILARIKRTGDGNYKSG
# Assay info: Growth inhibition of humanized yeast strain expressing SCD1 as sole desaturase
# Type: cell-based
# Particulars: humanized yeast strain, 40 h
# Description: Strain oleΔ (yeast ole1 deletion mutant) was constructed by deleting OLE1 with NAT-MX6 in BY4741, amplifying the deletion cassette from the genomic DNA of the resulting strain with primers flanking the ORF by 1000 bp upstream and downstream, transforming the resulting deletion cassette into W303 pdr1Δ pdr3Δ, and plating transformants on YPD media containing G418 (200 μg/mL) and nourseothricin ([…]) with 0.01% TWEEN®-20 and 0.5 mM oleic and palmitoleic acids. […]

Compound: CC(C)n1ncc2ccc(-c3noc(C4CCN(C(=O)C5(O)CC5)CC4)n3)cc21 [Compound 779]
Measured on: SCD1 (Homo sapiens, UniProt O00767)
IC50: > 45 µM
--
Compound: CC(C)(C)OC(=O)N1CCC(c2noc(-c3cncc(N4CCC(F)(F)C4)c3)n2)CC1 [Compound 1181]
Measured on: SCD1 (Homo sapiens, UniProt O00767)
IC50: > 45 µM
--
Compound: C[C@@H]1C[C@@H](c2noc(-c3ccc4cnn(C5COC5)c4c3)n2)CCN1C(=O)C1(F)CC1 [Compound 1065]
Measured on: SCD1 (Homo sapiens, UniProt O00767)
IC50: > 45 µM
--
Compound: CC(C)(C)OC(=O)N1CCC(c2cc(-c3ccc4cnn(C5COC5)c4c3)on2)CC1 [Compound 1026]
Measured on: SCD1 (Homo sapiens, UniProt O00767)
IC50: 3.98 µM

###

# Measured on: SCD5 (Homo sapiens)
# Construct: host or cells: S. cerevisiae ole1Δ strain (W303 pdr1Δ pdr3Δ background), plasmid pRS316 with TDH3 promoter and CYC1 terminator
# Sequence (Q86SK9 whole entry): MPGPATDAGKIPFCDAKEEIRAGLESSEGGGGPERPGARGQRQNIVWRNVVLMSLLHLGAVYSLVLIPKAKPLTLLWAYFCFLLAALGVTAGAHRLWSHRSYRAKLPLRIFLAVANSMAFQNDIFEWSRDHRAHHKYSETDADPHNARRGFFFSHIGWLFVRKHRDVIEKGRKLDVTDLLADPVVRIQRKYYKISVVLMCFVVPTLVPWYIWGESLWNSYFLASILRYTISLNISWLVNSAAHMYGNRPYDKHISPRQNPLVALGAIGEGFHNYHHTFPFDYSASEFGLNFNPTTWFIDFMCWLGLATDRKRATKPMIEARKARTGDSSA
# Assay info: Growth inhibition of humanized yeast strain expressing SCD5 as sole desaturase
# Format: cell-based
# Particulars: humanized yeast strain expressing SCD5
Outcome measure: SCD5 % Max Inhibition

Compound: COC(=O)N1CCN(c2nc(-c3ccc4cnn(C(C)C)c4c3)no2)CC1 [Compound 356]
Observed measurement: 2.88%
--
Compound: CC(C)n1ncc2cc(-c3noc(C4CCN(C(=O)CNC(=O)c5ccccc5)CC4)n3)ccc21 [Compound 228]
Observed measurement: 2.72%
--
Compound: COc1ccc(-c2noc(C3CCNCC3)n2)cc1OC [Compound 488]
Observed measurement: 72.82%
--
Compound: CC(C)(CO)n1cc2ccc(-c3noc(C4CCN(C(=O)CNC(=O)c5ccccc5)CC4)n3)cc2n1 [Compound 202]
Observed measurement: 74.20%

###

Documented SCD1 % Max Inhibition across a set of compounds
# Measured on: SCD1 (Homo sapiens, UniProt O00767)
# Construct: host or cells: S. cerevisiae ole1Δ strain (W303 pdr1Δ pdr3Δ background), plasmid pRS316 with TDH3 promoter and CYC1 terminator
# Assay info: Growth inhibition of humanized yeast strain expressing SCD1 as sole desaturase
# Format: cell-based
# Particulars: humanized yeast strain expressing SCD1
Outcome measure: SCD1 % Max Inhibition

Compound: CC(C)(C#N)C1CN(c2noc(C3CCN(C(=O)C4CC(=O)N(c5ccccc5)C4)CC3)n2)C1 (stereo not shown) [Compound 254]
Outcome measure: SCD1 % Max Inhibition
Observed measurement: 69.80%
--
Compound: CCOc1ccc(-c2noc(C3CCN(C(=O)[C@H]4CCN(C(=O)c5ccccc5)C4)CC3)n2)cc1OC [Compound 234]
Outcome measure: SCD1 % Max Inhibition
Observed measurement: 68.91%
--
Compound: CCOc1ccc(-c2noc(N3CCC(C(=O)N4CCO[C@@H](c5ccccc5)C4)CC3)n2)cc1OC [Compound 217]
Outcome measure: SCD1 % Max Inhibition
Observed measurement: 57.90%
--
Compound: CC(C)c1cccc(C(=O)N2CCC(c3nc(-c4ccc5cnn(C)c5c4)no3)CC2)c1 [Compound 205]
Outcome measure: SCD1 % Max Inhibition
Observed measurement: 31.70%
--
Compound: Cc1ccc(N2CC(C(=O)N3CCC(c4nc(-c5ccc6c(C)nn(C)c6c5)no4)CC3)CC2=O)cn1 (stereo not shown) [Compound 179]
Outcome measure: SCD1 % Max Inhibition
Observed measurement: 106.53%
--
Compound: Cc1nn(C)c2cc(-c3noc(C4CCN(C(=O)CNC(=O)c5cc(F)ccc5C(F)(F)F)CC4)n3)ccc12 [Compound 304]
Outcome measure: SCD1 % Max Inhibition
Observed measurement: 74.9%
--
Compound: Cc1nn(C)c2cc(-c3noc(C4CCN(C(=O)c5ccccc5C(F)(F)F)CC4)n3)ccc12 [Compound 283]
Outcome measure: SCD1 % Max Inhibition
Observed measurement: 34.91%
--
Compound: CCn1nc2cc(-c3noc(C4CCN(C(=O)OC(C)(C)C)CC4)n3)ccc2c1C [Compound 342]
Outcome measure: SCD1 % Max Inhibition
Observed measurement: 75.9%
--
Compound: CC(C)n1cc2cc(-c3noc(C4CCN(C(=O)CNC(=O)c5ccccc5)CC4)n3)ccc2n1 [Compound 229]
Outcome measure: SCD1 % Max Inhibition
Observed measurement: 66.51%
--
Compound: Cc1nn(C)c2cc(-c3noc(C4CCN(C(=O)C5CC(=O)N(c6ccccc6C#N)C5)CC4)n3)ccc12 (stereo not shown) [Compound 170]
Outcome measure: SCD1 % Max Inhibition
Observed measurement: 103.19%
--
Compound: O=C(c1ccccc1)N1CCC(c2nc(N3CC4(CCCO4)C3)no2)CC1 [Compound 335]
Outcome measure: SCD1 % Max Inhibition
Observed measurement: 54.0%
--
Compound: Cc1c2ccc(-c3noc(C4CCN(C(=O)CNC(=O)c5ccccc5)CC4)n3)cc2nn1C(C)C [Compound 289]
Outcome measure: SCD1 % Max Inhibition
Observed measurement: 62.01%
--
Compound: CC(C)c1ccc(C(=O)N2CCC(c3nc(N4CC5(CCCO5)C4)no3)CC2)cc1 [Compound 336]
Outcome measure: SCD1 % Max Inhibition
Observed measurement: 56.9%
--
Compound: Cn1ncc2ccc(NC(=O)C3CCN(C(=O)C4CC(=O)N(c5ccccc5)C4)CC3)cc21 (stereo not shown) [Compound 213]
Outcome measure: SCD1 % Max Inhibition
Observed measurement: 86.35%
--
Compound: Cc1nn(C)c2cc(-c3noc(C4CCN(C(=O)C5CC(=O)N(c6ccc(C#N)cc6)C5)CC4)n3)ccc12 (stereo not shown) [Compound 139]
Outcome measure: SCD1 % Max Inhibition
Observed measurement: 87.50%
--
Compound: Cn1c(=O)n(C)c2cc(-c3noc(C4CCN(C(=O)[C@H]5CC(=O)N(c6ccccn6)C5)CC4)n3)ccc21 [Compound 256]
Outcome measure: SCD1 % Max Inhibition
Observed measurement: 76.04%
--
Compound: COc1ccc(-c2noc(CCNC(=O)CNC(=O)c3ccccc3)n2)cc1OC [Compound 484]
Outcome measure: SCD1 % Max Inhibition
Observed measurement: 75.84%
--
Compound: Cc1nn(C)c2cc(-c3noc(C4CCN(C(=O)C5CC(=O)N(CC6COC6)C5)CC4)n3)ccc12 (stereo not shown) [Compound 255]
Outcome measure: SCD1 % Max Inhibition
Observed measurement: 72.70%
--
Compound: Cc1nn(C)c2cc(-c3noc(C4CCN(C(=O)CNC(=O)c5cccnc5)CC4)n3)ccc12 [Compound 197]
Outcome measure: SCD1 % Max Inhibition
Observed measurement: 66.87%
--
Compound: CCn1nc(C)c2ccc(-c3noc(C4CCN(C(=O)OC(C)(C)C)CC4)n3)cc21 [Compound 301]
Outcome measure: SCD1 % Max Inhibition
Observed measurement: 96.2%
--
Compound: COc1ccc(-c2noc(C3CCN(C(=O)CNC(=O)c4ccccc4)CC3)n2)cc1OC(C)C [Compound 274]
Outcome measure: SCD1 % Max Inhibition
Observed measurement: 75.3%
--
Compound: COc1ccc(-c2noc(C3CCN(C(=O)Cc4ccccc4)CC3)n2)cc1OC [Compound 44]
Outcome measure: SCD1 % Max Inhibition
Observed measurement: 17.96%
--
Compound: Cc1nn(C)c2cc(-c3noc(C4CCN(C(=O)[C@H]5CCN(C(=O)c6ccccc6)C5)CC4)n3)ccc12 [Compound 239]
Outcome measure: SCD1 % Max Inhibition
Observed measurement: 75.58%
--
Compound: Cc1nn(C)c2cc(-c3noc(C4CCN(C(=O)CN5Cc6ccccc6C5=O)CC4)n3)ccc12 [Compound 165]
Outcome measure: SCD1 % Max Inhibition
Observed measurement: 94.44%
--
Compound: Cc1nn(C)c2nc(-c3noc(C4CCN(C(=O)CNC(=O)c5ccccc5)CC4)n3)ccc12 [Compound 115]
Outcome measure: SCD1 % Max Inhibition
Observed measurement: 77.36%
--
Compound: Cn1c(=O)n(C)c2cc(-c3noc(C4CCN(C(=O)CNC(=O)c5ccncc5)CC4)n3)ccc21 [Compound 238]
Outcome measure: SCD1 % Max Inhibition
Observed measurement: 70.06%
--
Compound: COc1cccc(-c2noc(C3CC(=O)N(c4ccc(C)c(C)c4)C3)n2)c1 (stereo not shown) [Compound 489]
Outcome measure: SCD1 % Max Inhibition
Observed measurement: 68.84%
--
Compound: Cc1cc(N2CC(C(=O)N3CCC(c4nc(-c5ccc6c(C)nn(C)c6c5)no4)CC3)CC2=O)ccn1 (stereo not shown) [Compound 183]
Outcome measure: SCD1 % Max Inhibition
Observed measurement: 101.67%
--
Compound: N#Cc1ccc(-c2noc(C3CCN(C(=O)[C@H]4CC(=O)N(c5ccccc5)C4)CC3)n2)s1 [Compound 247]
Outcome measure: SCD1 % Max Inhibition
Observed measurement: 79.89%
--
Compound: CCN(Cc1nc(-c2ccc(OC)c(OC)c2)no1)C(=O)Cc1cccc2ccccc12 [Compound 157]
Outcome measure: SCD1 % Max Inhibition
Observed measurement: 80.54%
--
Compound: CCN1CCOc2cc(-c3noc(C4CCN(C(=O)CNC(=O)c5ccccc5)CC4)n3)ccc21 [Compound 110]
Outcome measure: SCD1 % Max Inhibition
Observed measurement: 66.85%

The reported numbers originate from patent US11873298B2.
